# Run description: Antioxidant activity assessed as Cu2+ quenching activity
# Assay type: functional
Reported values of KSV for individual entries
Quick reminder: number only, in ×10⁴ /M, skip the unit.

Endpoint output: KSV of Oc1ccccc1/C=N/c1ccccc1O . Value?
6.07

Moving on to CN(C)c1ccc(/C=N/c2ccc(O)cc2)cc1
2.69

###

Reported values of KSV for individual entries
# Run description: Antioxidant activity assessed as Fe2+ quenching activity
# Format: functional
Quick reminder: number only, in ×10³ /M, skip the unit.

Examples with their reported KSV follow.
INSERT INTO results (compound, experimental_value) VALUES
  ('Oc1ccc(/N=C/C=C/c2ccccc2)cc1', 6.6),
  ('Oc1ccc(/N=C/c2ccccc2)cc1 [4-(BENZYLIDENEAMINO)PHENOL]', 4.09),
  ('Oc1cccc(/N=C/C=C/c2ccccc2)c1', 8.91),
  ('Oc1ccc(/N=C/c2ccco2)cc1', 0.9),
  ('Oc1cccc(/N=C/c2ccccc2)c1 [3-(BENZYLIDENEAMINO)PHENOL]', 7.03);

Endpoint output: KSV of CN(C)c1ccc(/C=N/c2ccc(O)cc2)cc1 . Value?
7.4

Moving on to CN(C)c1ccc(/C=N/c2ccccc2O)cc1
5.19
